The entries below come with measured pKi values attached.
TARGET OR TEST SYSTEM: synthetic human Aβ1-42 fibrils (Homo sapiens, UniProt P05067)
Construct: Synthetic lyophilized human Aβ1-42 peptide; purchased EMC Microcollections, Tuebingen, Germany; host or cells: chemical synthesis
Sequence (P05067 672-713 limits assumed): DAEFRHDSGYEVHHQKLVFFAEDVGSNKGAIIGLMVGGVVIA
ASSAY PROCEDURE: Competition binding assay against [^3H]MODAG−001 on Aβ1-42 fibrils
EXPERIMENTAL CONDITIONS: competition vs 1 nM [^3H]MODAG−001, Aβ1-42 fibrils 1 µM; mean ± SEM; read-out: Aβ—Ki [^3H]MODAG−001
pKi: −log10 of the molar value.

>  <TEST SMILES>
COc1cccc(Sc2cc(-c3cc(-c4cccc(F)c4)n[nH]3)ccc2N)c1

>  <TARGET OR TEST SYSTEM>
synthetic human Aβ1-42 fibrils (Homo sapiens, UniProt P05067)

>  <pKi>
< 6.40

$$$$
>  <TEST SMILES>
COc1cccc(Sc2cc(-c3cc(-c4ccccc4)n[nH]3)ccc2N)c1

>  <TARGET OR TEST SYSTEM>
synthetic human Aβ1-42 fibrils (Homo sapiens, UniProt P05067)

>  <pKi>
< 6.40

$$$$
>  <TEST SMILES>
COc1cccc(Sc2cc(-c3cc(-c4ccccn4)n[nH]3)ccc2N)c1

>  <TARGET OR TEST SYSTEM>
synthetic human Aβ1-42 fibrils (Homo sapiens, UniProt P05067)

>  <pKi>
< 6.40

$$$$
